# study system: AChE (acetylcholinesterase) (Electrophorus electricus, UniProt O42275)
# Sequence (O42275 24-633 limits assumed): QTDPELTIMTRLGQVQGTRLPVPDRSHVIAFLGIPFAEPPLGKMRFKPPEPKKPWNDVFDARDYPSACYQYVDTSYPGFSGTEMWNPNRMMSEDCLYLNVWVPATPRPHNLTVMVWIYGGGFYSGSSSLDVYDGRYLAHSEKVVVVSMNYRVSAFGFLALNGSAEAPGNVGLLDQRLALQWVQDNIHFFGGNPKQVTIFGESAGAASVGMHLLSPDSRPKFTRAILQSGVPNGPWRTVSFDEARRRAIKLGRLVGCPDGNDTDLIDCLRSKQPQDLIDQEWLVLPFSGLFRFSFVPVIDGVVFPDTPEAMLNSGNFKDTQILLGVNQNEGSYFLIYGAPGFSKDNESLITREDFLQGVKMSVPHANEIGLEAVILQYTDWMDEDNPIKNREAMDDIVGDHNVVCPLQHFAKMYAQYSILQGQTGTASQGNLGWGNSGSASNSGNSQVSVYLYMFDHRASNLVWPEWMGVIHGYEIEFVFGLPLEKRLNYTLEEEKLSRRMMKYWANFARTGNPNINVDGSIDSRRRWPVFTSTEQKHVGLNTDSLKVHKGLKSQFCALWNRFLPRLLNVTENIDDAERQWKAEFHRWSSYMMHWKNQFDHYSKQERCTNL
# assay comment: colorimetric hydroxamic acid/FeCl3 assay of remaining ACh (Bonting and Featherstone), non-linear regression
# Type: biochemical
property: Ki

Request: Provide measured Ki value, entry: `CN(C)C(=O)Oc1cccc([N+](C)(C)C)c1`
Response: 93 to 157 µM

---

# study system: AChE (acetylcholinesterase) (Electrophorus electricus)
# assay comment: colorimetric hydroxamic acid/FeCl3 assay of remaining ACh (Bonting and Featherstone), enzyme kinetics with Lineweaver-Burk plot
# Assay type: biochemical
pKi: −log10 of the molar value.
property: pKi

Request: Provide measured pKi value, entry: COc1ccc(CCN2C(=O)c3ccccc3C2=O)cc1OC [compound 1]
Response: 3.03 to 3.48
